These measurements were taken from patent US20150210660A1.

# assayInfo: Evaluation of reactivity with acid (stirring with 2-ethylhexanoic acid in 1,3,5-trimethylbenzene at 150° C.)
# Format: physicochemical
# conditionLabel: stirring time 0 hr (before heating); JIS K 0070
measuredMetric: Acid value (KOH-mg/g)
Reply numerically in KOH-mg/g, unit not repeated.

Example results:
| compound | resultUnits | Acid value |
| --- | --- | --- |
| C=C(C)C1CCC2(C)OC2C1 [D-Limonene oxide, D-limonene oxide] | KOH-mg/g | 38.36 |
| O=C(OCC1CCC2OC2C1)C1CCC2OC2C1 (stereo not drawn) [CELLOXIDE 2021P] | KOH-mg/g | 37.56 |

Here is another compound to look at.
Task: Look at this compound and give its reported Acid value. CCCCC(CC)COC(=O)C1CC2OC2CC1C(=O)OCC(CC)CCCC (stereo not drawn) [SANSO CIZER E-PS, di-2-ethylhexyl epoxyhexahydrophthalate]
Output: 38.13

----------
Measured Acid value, listed per entry.
# assayInfo: Evaluation of reactivity with acid (stirring with 2-ethylhexanoic acid in 1,3,5-trimethylbenzene at 150° C.)
# Assay type: physicochemical
# conditionLabel: stirring time 2 hrs at 150° C.; JIS K 0070
Kindly write the number and append the unit.

Example results:
| molecule | reportedValue |
| --- | --- |
| C=C(C)C1CCC2(C)OC2C1 [D-Limonene oxide, D-limonene oxide] | 26.27 KOH-mg/g |
| CC1(C2CCC3(C)OC3C2)CO1 (stereo not drawn) [CELLOXIDE 3000] | 24.52 KOH-mg/g |
| C=CC1CCC2OC2C1 (stereo not drawn) [CELLOXIDE 2000, 4-vinylcyclohexene oxide] | 23.80 KOH-mg/g |
| CC(CC(=O)OCC1CCC2OC2C1)CC(C)(C)C (stereo not drawn) | 20.32 KOH-mg/g |
| O=C(OCC1CCC2OC2C1)C1CCC2OC2C1 (stereo not drawn) [CELLOXIDE 2021P] | 21.23 KOH-mg/g |

Here is another molecule to look at.
Task: Look at this molecule and give its reported Acid value. CCCCC(CC)COC(=O)C1CC2OC2CC1C(=O)OCC(CC)CCCC (stereo not drawn) [SANSO CIZER E-PS, di-2-ethylhexyl epoxyhexahydrophthalate]
Output: 33.80 KOH-mg/g

----------
# assayInfo: Evaluation of reactivity with acid (stirring with 2-ethylhexanoic acid in 1,3,5-trimethylbenzene at 150° C.)
# Format: physicochemical
# conditionLabel: stirring time 2 hrs at 150° C.; calculated from acid values, 0 hr = 100%
measuredMetric: Acid residual percentage (%)
Reply numerically in %, unit not repeated.

| molecule | measuredMetric | reportedValue |
| --- | --- | --- |
| C=CC1CCC2OC2C1 (stereo not drawn) [CELLOXIDE 2000, 4-vinylcyclohexene oxide] | Acid residual percentage | 66 |
| CC1(C2CCC3(C)OC3C2)CO1 (stereo not drawn) [CELLOXIDE 3000] | Acid residual percentage | 68 |
| CCCCC(CC)COC(=O)C1CC2OC2CC1C(=O)OCC(CC)CCCC (stereo not drawn) [SANSO CIZER E-PS, di-2-ethylhexyl epoxyhexahydrophthalate] | Acid residual percentage | 89 |

Task: Look at this molecule and give its reported Acid residual percentage. C=C(C)C1CCC2(C)OC2C1 [D-Limonene oxide, D-limonene oxide]
Output: 68

Task: Also check O=C(OCC1CCC2OC2C1)C1CCC2OC2C1 (stereo not drawn) [CELLOXIDE 2021P]
Output: 57

Task: Also check CC(CC(=O)OCC1CCC2OC2C1)CC(C)(C)C (stereo not drawn)
Output: 54

----------
# assayInfo: Evaluation of reactivity with acid (stirring with 2-ethylhexanoic acid in 1,3,5-trimethylbenzene at 150° C.)
# Assay type: physicochemical
# conditionLabel: stirring time 6 hrs at 150° C.; JIS K 0070
Measured Acid value, listed per entry.
Reply numerically in KOH-mg/g, unit not repeated.

| compound | Acid value [KOH-mg/g] |
| --- | --- |
| CCCCC(CC)COC(=O)C1CC2OC2CC1C(=O)OCC(CC)CCCC (stereo not drawn) [SANSO CIZER E-PS, di-2-ethylhexyl epoxyhexahydrophthalate] | 27.97 |
| C=C(C)C1CCC2(C)OC2C1 [D-Limonene oxide, D-limonene oxide] | 19.15 |
| CC(CC(=O)OCC1CCC2OC2C1)CC(C)(C)C (stereo not drawn) [Product of Example 1] | 9.98 |
| O=C(OCC1CCC2OC2C1)C1CCC2OC2C1 (stereo not drawn) [CELLOXIDE 2021P] | 11.22 |

Task: Look at this compound and give its reported Acid value. CC1(C2CCC3(C)OC3C2)CO1 (stereo not drawn) [CELLOXIDE 3000]
Output: 18.65

Task: Also check C=CC1CCC2OC2C1 (stereo not drawn) [CELLOXIDE 2000, 4-vinylcyclohexene oxide]
Output: 12.90

----------
# assayInfo: Evaluation of reactivity with acid (stirring with 2-ethylhexanoic acid in 1,3,5-trimethylbenzene at 150° C.)
# Assay type: physicochemical
# conditionLabel: stirring time 4 hrs at 150° C.; JIS K 0070
Measured Acid value, listed per entry.
Reply numerically in KOH-mg/g, unit not repeated.

Example results:
| molecule | resultUnits | Acid value |
| --- | --- | --- |
| CC1(C2CCC3(C)OC3C2)CO1 (stereo not drawn) [CELLOXIDE 3000] | KOH-mg/g | 22.04 |
| O=C(OCC1CCC2OC2C1)C1CCC2OC2C1 (stereo not drawn) [CELLOXIDE 2021P] | KOH-mg/g | 14.54 |
| C=CC1CCC2OC2C1 (stereo not drawn) [CELLOXIDE 2000, 4-vinylcyclohexene oxide] | KOH-mg/g | 17.54 |
| C=C(C)C1CCC2(C)OC2C1 [D-Limonene oxide, D-limonene oxide] | KOH-mg/g | 22.44 |
| CCCCC(CC)COC(=O)C1CC2OC2CC1C(=O)OCC(CC)CCCC (stereo not drawn) [SANSO CIZER E-PS, di-2-ethylhexyl epoxyhexahydrophthalate] | KOH-mg/g | 32.16 |

Task: Look at this molecule and give its reported Acid value. CC(CC(=O)OCC1CCC2OC2C1)CC(C)(C)C (stereo not drawn)
Output: 13.13

----------
# assayInfo: Evaluation of reactivity with acid (stirring with 2-ethylhexanoic acid in 1,3,5-trimethylbenzene at 150° C.)
# Type: physicochemical
# conditionLabel: stirring time 2 hrs at 150° C.; HBr titrimetry
measuredMetric: Oxirane oxygen content (%)
Reply numerically in %, unit not repeated.

| molecule | Oxirane oxygen content, % |
| --- | --- |
| CC1(C2CCC3(C)OC3C2)CO1 (stereo not drawn) [CELLOXIDE 3000] | 0.91 |
| C=CC1CCC2OC2C1 (stereo not drawn) [CELLOXIDE 2000, 4-vinylcyclohexene oxide] | 146 |
| CC(CC(=O)OCC1CCC2OC2C1)CC(C)(C)C (stereo not drawn) | 1.20 |

Task: Look at this molecule and give its reported Oxirane oxygen content. C=C(C)C1CCC2(C)OC2C1 [D-Limonene oxide, D-limonene oxide]
Output: 1.56

Task: Also check O=C(OCC1CCC2OC2C1)C1CCC2OC2C1 (stereo not drawn) [CELLOXIDE 2021P]
Output: 1.51

Task: Also check CCCCC(CC)COC(=O)C1CC2OC2CC1C(=O)OCC(CC)CCCC (stereo not drawn) [SANSO CIZER E-PS, di-2-ethylhexyl epoxyhexahydrophthalate]
Output: 1.72

----------
Measured Oxirane oxygen content, listed per entry.
# assayInfo: Evaluation of reactivity with acid (stirring with 2-ethylhexanoic acid in 1,3,5-trimethylbenzene at 150° C.)
# Type: physicochemical
# conditionLabel: stirring time 4 hrs at 150° C.; HBr titrimetry
# Protocol: A mixture was prepared by blending 5.2 g of the 3,4-epoxycyclohexylmethyl 3,5,5-trimethylhexanoate prepared in Example 1 (product of Example 1), 1.4 g of 2-ethylhexanoic acid (trade name Octanoic Acid, supplied by Kyowa Hakko Chemical Co., Ltd.), and 8.5 g of 1,3,5-trimethylbenzene (reagent, supplied by Wako Pure Chemical Industries, Ltd.). […] The acid value and oxirane oxygen content of the mixture were measured before the stirring with heating, and 2 hours, 4 hours, and 6 hours into the stirring. […]
Reply numerically in %, unit not repeated.

Example results:
| compound | resultUnits | Oxirane oxygen content |
| --- | --- | --- |
| CC(CC(=O)OCC1CCC2OC2C1)CC(C)(C)C (stereo not drawn) [Product of Example 1] | % | 1.00 |
| O=C(OCC1CCC2OC2C1)C1CCC2OC2C1 (stereo not drawn) [CELLOXIDE 2021P] | % | 1.33 |
| CC1(C2CCC3(C)OC3C2)CO1 (stereo not drawn) [CELLOXIDE 3000] | % | 0.71 |
| CCCCC(CC)COC(=O)C1CC2OC2CC1C(=O)OCC(CC)CCCC (stereo not drawn) [SANSO CIZER E-PS, di-2-ethylhexyl epoxyhexahydrophthalate] | % | 1.63 |
| C=C(C)C1CCC2(C)OC2C1 [D-Limonene oxide, D-limonene oxide] | % | 1.38 |

Here is another compound to look at.
Task: Look at this compound and give its reported Oxirane oxygen content. C=CC1CCC2OC2C1 (stereo not drawn) [CELLOXIDE 2000, 4-vinylcyclohexene oxide]
Output: 1.25
